system: Rattus norvegicus; assay: Antipsychotic activity in po dosed rat assessed as reduction of MK801-induced hyperactivity; type: functional; details: Rattus norvegicus, po; read-out: MED
readout label: minimal effective dose

| smiles notation | assay system | minimal effective dose |
| --- | --- | --- |
| COc1cc(C(F)(F)F)cc2c1nnc1c(C)nc(-c3ccncc3C)n12 | Rattus norvegicus | 0.1 mg/kg |

Quick check: minimal effective dose on Rattus norvegicus, item `COc1cc(OC)c2nnc3c(C)nc(-c4ccccc4Cl)n3c2c1` ?
0.5 mg/kg

Quick check: minimal effective dose on Rattus norvegicus, item `COc1cc(OC)c2nnc3c(C)nc(-c4ccncc4C)n3c2c1` ?
0.5 mg/kg

Quick check: minimal effective dose on Rattus norvegicus, item `COc1ccnc2c1nnc1c(C)nc(-c3ccncc3C)n12` ?
2.5 mg/kg

---

target: Phosphodiesterase 3 (Homo sapiens, UniProt Q14432+Q13370); experiment: Inhibition of PDE3; type: protein assay
readout label: IC50

| smiles notation | IC50 |
| --- | --- |
| COc1cc(C(F)(F)F)cc2c1nnc1c(C)nc(-c3cccc(F)c3C)n12 | > 5 µM |

Quick check: IC50 on Phosphodiesterase 3 (Homo sapiens, UniProt Q14432+Q13370), item `COc1cc(OC(F)F)cc2c1nnc1c(C)nc(-c3ccncc3C)n12` ?
> 10 µM

Quick check: IC50 on Phosphodiesterase 3 (Homo sapiens, UniProt Q14432+Q13370), item `COc1ccc(F)c(-c2nc(C)c3nnc4ccc(OC)nc4n23)c1` ?
1.82 µM

---

IC50 values for the molecules below.
target: cAMP and cAMP-inhibited cGMP 3',5'-cyclic phosphodiesterase 10A (Homo sapiens, UniProt Q9Y233); test: Inhibition of human recombinant PDE10A-catalyzed cAMP hydrolysis
Sequence (Q9Y233 whole entry): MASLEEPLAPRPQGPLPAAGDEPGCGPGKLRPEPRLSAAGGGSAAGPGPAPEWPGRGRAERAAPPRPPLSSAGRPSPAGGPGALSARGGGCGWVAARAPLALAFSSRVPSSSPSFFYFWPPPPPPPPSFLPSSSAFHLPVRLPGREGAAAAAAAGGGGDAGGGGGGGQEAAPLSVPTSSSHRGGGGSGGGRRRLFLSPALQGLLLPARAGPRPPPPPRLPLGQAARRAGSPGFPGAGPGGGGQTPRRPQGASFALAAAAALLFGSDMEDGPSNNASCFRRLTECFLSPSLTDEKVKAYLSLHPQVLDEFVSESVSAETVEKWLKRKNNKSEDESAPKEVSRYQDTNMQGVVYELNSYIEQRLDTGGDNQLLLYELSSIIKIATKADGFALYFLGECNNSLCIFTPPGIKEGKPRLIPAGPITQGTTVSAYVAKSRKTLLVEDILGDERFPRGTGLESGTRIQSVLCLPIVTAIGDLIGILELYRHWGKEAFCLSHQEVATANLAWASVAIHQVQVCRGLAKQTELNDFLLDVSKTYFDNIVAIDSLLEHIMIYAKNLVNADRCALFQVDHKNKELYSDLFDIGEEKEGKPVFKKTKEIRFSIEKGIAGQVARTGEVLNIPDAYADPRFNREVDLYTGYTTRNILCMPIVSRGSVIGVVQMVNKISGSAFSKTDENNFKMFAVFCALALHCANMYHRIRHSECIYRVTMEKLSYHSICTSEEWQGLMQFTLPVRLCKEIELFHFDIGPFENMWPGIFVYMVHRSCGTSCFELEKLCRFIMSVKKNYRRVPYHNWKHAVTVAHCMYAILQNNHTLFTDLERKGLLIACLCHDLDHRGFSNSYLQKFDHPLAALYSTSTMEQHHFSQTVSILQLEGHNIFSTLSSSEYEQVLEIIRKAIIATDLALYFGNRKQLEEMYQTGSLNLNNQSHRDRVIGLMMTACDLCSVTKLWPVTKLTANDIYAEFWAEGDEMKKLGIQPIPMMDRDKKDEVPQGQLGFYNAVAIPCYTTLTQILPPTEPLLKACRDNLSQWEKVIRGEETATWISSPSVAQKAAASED
Give your result in nM as a bare value.

Would you kindly share the measured IC50 for `COc1ccc2nnc3c(C)nc(-c4ccccc4C)n3c2n1` ?
47.6

Would you kindly share the measured IC50 for `COc1ccc2nnc3c(C)nc(-c4ccc(F)cc4C)n3c2n1` ?
45.9

Would you kindly share the measured IC50 for `COc1cc(F)cc2c1nnc1c(C)nc(-c3cccnc3C)n12` ?
7.84

Would you kindly share the measured IC50 for `COc1cc(C(F)(F)F)cc2c1nnc1c(C)nc(-c3cccc(F)c3C)n12` ?
1.85

Would you kindly share the measured IC50 for `COc1cc(F)cc2c1nnc1c(C)nc(-c3ccncc3C)n12` ?
7.2

Would you kindly share the measured IC50 for `COc1cc(OC)c2nnc3c(C)nc(-c4ccccc4C)n3c2c1` ?
5.13

Would you kindly share the measured IC50 for `COc1ccc2nnc3c(C)nc(-c4ccccc4Cl)n3c2n1` ?
13.1

Would you kindly share the measured IC50 for `COc1cc(OC(F)F)cc2c1nnc1c(C)nc(-c3ccncc3C)n12` ?
7

Would you kindly share the measured IC50 for `COc1ccnc2c1nnc1c(C)nc(-c3cccnc3C)n12` ?
12.4

---

target: Phosphodiesterase 4 (Homo sapiens, UniProt P27815+Q08499+Q07343+Q08493); assay: Inhibition of PDE4; format: protein assay
IC50 values for the molecules below.
Give your result in nM as a bare value.

Worked examples, 3 molecules total:
| smiles notation | readout label | unit symbol | value |
| --- | --- | --- | --- |
| COc1ccnc2c1nnc1c(C)nc(-c3ccncc3C)n12 | IC50 | nM | 3680 |
| COc1cccc2c1nnc1c(C)nc(-c3ccccc3C)n12 | IC50 | nM | 176 |
| COc1cc(N2CCOCC2)cc2c1nnc1c(C)nc(-c3ccccc3C)n12 | IC50 | nM | 2920 |

Read the next record carefully.
Would you kindly share the measured IC50 for `COc1cc(F)c2nnc3c(C)nc(-c4sccc4C)n3c2c1` ?
3670
